Tested on: CCRF-CEM
MEASUREMENT_DESCRIPTION: Growth inhibition of human CCRF-CEM cells at 10 uM after 48 hrs by SRB method
Type: functional
CONDITIONS_USED: read-out: GI
Items are presented alongside their recorded inhibition of growth at 10 µM.
// units = %; emit number, no label

1. CCOC(=O)c1ccc(NC(=O)CN2CCN(c3nnc(-c4ccccc4)c4ccccc34)CC2)cc1 ... 88
2. CCOC(=O)c1sc(NC(=O)CN2CCN(c3nnc(-c4ccccc4)c4ccccc34)CC2)nc1C ... 34
3. COc1ccc(-c2csc(NC(=O)CN3CCN(c4nnc(-c5ccccc5)c5ccccc45)CC3)n2)cc1 ... 34
4. O=C(CN1CCN(c2nnc(-c3ccccc3)c3ccccc23)CC1)Nc1nc(-c2ccc(Cl)cc2)cs1 ... 38
5. O=C(CN1CCN(c2nnc(-c3ccccc3)c3ccccc23)CC1)Nc1nccs1 ... 30
6. Cc1nc(NC(=O)CN2CCN(c3nnc(-c4ccccc4)c4ccccc34)CC2)sc1C(=O)Nc1ccccc1 ... 73
7. O=C(CN1CCN(c2nnc(-c3ccccc3)c3ccccc23)CC1)Nc1cccc(C(F)(F)F)c1 ... 31

Turning now to a further molecule:
Summary: O=C(CN1CCN(c2nnc(-c3ccccc3)c3ccccc23)CC1)Nc1nc(-c2ccccc2)cs1 , CCRF-CEM, inhibition of growth at 10 µM = 53
